Entries and their melting point values follow.

Inquiry: Tell me the measured melting point of CS(=O)(=O)c1ccc(-c2ccccc2Cc2cccc(F)c2)cc1 , please.
Reply text: 97 to 98 °C

Inquiry: Tell me the measured melting point of CS(=O)(=O)c1ccc(-c2ccccc2C=C2CCCCC2)cc1 [Example 24e] , please.
Reply text: 83 °C

Inquiry: Tell me the measured melting point of CS(=O)(=O)c1ccc(-c2cc3c(cc2Cc2cc(F)cc(F)c2)OC(C(N)=O)CO3)cc1 (stereo not drawn) , please.
Reply text: 238 to 241 °C

Inquiry: Tell me the measured melting point of CS(=O)(=O)c1ccc(-c2cc3c(cc2Cc2cc(F)cc(F)c2)OCCO3)cc1 , please.
Reply text: 160 to 162 °C

Inquiry: Tell me the measured melting point of CS(=O)(=O)c1ccc(-c2cc3c(cc2C(=O)c2cc(F)cc(F)c2)OCCO3)cc1 , please.
Reply text: 191 to 193 °C

Next:
Inquiry: Tell me the measured melting point of CS(=O)(=O)c1ccc(-c2ccccc2C(=O)c2cccc(F)c2)cc1 [Example 25c] , please.
Reply text: 105 to 106 °C

Origin of the recorded values: patent US6825185B2
